Origin of the recorded values: patent US20250353831A1

Tested on: TEAD
ASSAY: TEAD reporter activity inhibition test (luciferase reporter in MCF7 cell line)
Assay type: cell-based
COND: Homo sapiens; MCF7 TEAD (GTIIC) firefly luciferase reporter cell line, 24 hours, ONE-Glo luminescence; read-out: IC50 on TEAD transcription activity
Experimental: The ability of the synthetic compounds to inhibit transcription of a target gene by TEAD was measured. […] After culturing the cell line for 24 hours, signals of luciferase were measured by luminescence according to manufacturer's protocols by using ONE-Glo luciferase assay system (Promega, E6120). […]
REPORTED_ENDPOINT: IC50

compound="C=CC(=O)Nc1ccc2c(c1)c(-c1cn(CCOC)cn1)cn2-c1ccc(C(F)(F)F)cc1 [Synthetic compound 7]" value_measured="< 100 nM"
compound="C=C(F)C(=O)Nc1ccc2c(c1)c(-c1cn(C)cn1)cn2-c1ccc(C(F)(F)F)cc1 [Synthetic compound 6]" value_measured="100 to 500 nM"
compound="C=CC(=O)Nc1ccc2c(c1)c(-c1cn(C)cn1)cn2-c1ccc(C(F)(F)F)cc1 [Synthetic compound 9]" value_measured="< 100 nM"
compound="C=CC(=O)Nc1ccc2c(c1)c(-c1cn(C3CCC3)cn1)cn2-c1ccc(C(F)(F)F)cc1 [Synthetic compound 4]" value_measured="< 100 nM"
compound="C=CC(=O)Nc1ccc2c(c1)c(-c1cn(C3CC3)cn1)cn2-c1ccc(C(F)(F)F)cc1 [Synthetic compound 2]" value_measured="< 100 nM"
compound="C=CC(=O)Nc1ccc2c(c1)c(-c1ccco1)cn2-c1ccc(C(F)(F)F)cc1 [Synthetic compound 3]" value_measured="< 100 nM"
compound="C=CC(=O)Nc1cnc2c(c1)c(-c1cn(C3CC3)cn1)cn2-c1ccc(C(F)(F)F)cc1 [Synthetic compound 8]" value_measured="< 100 nM"
compound="C=CC(=O)Nc1ccc2c(c1)c(-c1ccccc1F)cn2-c1ccc(C(F)(F)F)cc1 [Synthetic compound 5]" value_measured="< 100 nM"
compound="C=CC(=O)Nc1cc2c(-c3cn(C)cn3)cn(-c3ccc(C(F)(F)F)cc3)c2cc1Cl [Synthetic compound 10]" value_measured="100 to 500 nM"
